- STUDY TARGET: T1, human CD71 extracellular domain (CD71-ECD) (human, UniProt P02786 89-760)
- T1 construct: also called hCD71; human CD71-ECD
- T1 sequence (P02786 89-760): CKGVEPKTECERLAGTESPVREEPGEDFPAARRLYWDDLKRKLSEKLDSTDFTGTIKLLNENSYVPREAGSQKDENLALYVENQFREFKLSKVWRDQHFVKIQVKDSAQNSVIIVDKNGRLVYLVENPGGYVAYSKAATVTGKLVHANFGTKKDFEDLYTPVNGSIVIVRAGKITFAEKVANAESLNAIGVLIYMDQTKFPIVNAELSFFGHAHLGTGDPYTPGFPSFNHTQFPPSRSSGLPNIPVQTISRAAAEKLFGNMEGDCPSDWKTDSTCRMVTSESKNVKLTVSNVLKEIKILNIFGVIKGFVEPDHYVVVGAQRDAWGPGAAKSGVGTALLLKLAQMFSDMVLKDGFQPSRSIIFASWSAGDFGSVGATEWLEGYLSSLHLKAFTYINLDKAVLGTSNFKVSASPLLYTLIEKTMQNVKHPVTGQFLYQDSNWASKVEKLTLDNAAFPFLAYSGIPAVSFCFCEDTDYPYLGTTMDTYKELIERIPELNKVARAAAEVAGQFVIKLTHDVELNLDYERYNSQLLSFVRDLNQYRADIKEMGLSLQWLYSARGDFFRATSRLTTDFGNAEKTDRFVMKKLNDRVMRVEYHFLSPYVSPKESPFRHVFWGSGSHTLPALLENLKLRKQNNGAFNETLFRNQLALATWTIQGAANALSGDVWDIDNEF
- PROTOCOL SUMMARY: primary ELISA, RLU ratio to HSA
REPORTED ENDPOINT: hCD71:HSA
Hey, just send me the number, nothing else.

BINDER	RESULT VALUE
CD71-binding FN3 domain SEQ ID NO: 242 (designed binder) MSLPAPKNLVVSRVTEDSARLSWTAPDAAFDSFEIGYFENLYLGEAIVLTVPGSERSYDLTGLKPGTKYWVQIGGVKGGNWSAPLSAIFTT	165

Turning now to a further binder:
Given item CD71-binding FN3 domain SEQ ID NO: 292 (designed binder) MSLPAPKNLVVSRVTEDSARLSWTAPDAAFDSFEIGYWENAYKGEAIVLTVPGSERSYDLTGLKPGTEYVVFIGGVKGGVWSVSLSAIFTT , the value recorded as its hCD71:HSA is 291
